- assayedTarget: T1, cy-IL-36α (cynomolgus monkey IL-36α, K6-F158) (cynomolgus monkey, UniProt Q9UHA7 14-158 (human entry))
- T1 construct: Purification tag cleaved off
- T1 chain: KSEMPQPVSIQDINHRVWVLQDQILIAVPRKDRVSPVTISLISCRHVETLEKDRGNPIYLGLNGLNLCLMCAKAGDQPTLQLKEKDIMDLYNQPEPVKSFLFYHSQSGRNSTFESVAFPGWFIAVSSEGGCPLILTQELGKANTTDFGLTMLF
- experimentSummary: ELISA on coated cy- and hu-IL-36α, yeast Fab supernatant; ratio of OD450
measureName: ELISA OD450cyIL-36/OD450hu-IL-36 (ratio)
Give just the number in ratio; leave the unit off.

binder | ELISA OD450cyIL-36/OD450hu-IL-36, ratio
mAb4.0 Fab (yeast clone culture supernatant) (Fab, V domains shown, Human Fab secreted by the yeast clone, not purified) VH: QLQLQESGPGLVKPSETLSLTCTVSGGSIGSRSYYWGWIRQPPGKGLEWIGSIHYSGTTYYNPSLKSRVTISVDTSKNQFSLKLSSVTAADTAVYYCARVAPSYPRVFDYWGQGTLVTVSS VL: QSVLTQPPSVSGAPGQRVTISCTGSSSNIGAGYDVHWYQQLPGTAPKLLIYGNRNRPSGVPDRFSGSKSGTSASLAITGLQAEDEADYYCQSYDYSLRVYVFGGGTKLTVL | 0.5
mAb2.0 Fab (yeast clone culture supernatant) (Fab, V domains shown, Human Fab secreted by the yeast clone, not purified) VH: QLQLQESGPGLVKPSETLSLTCTVSGGSISTSSYYWGWIRQPPGKGLEWIGSIYYTGNTYYNPSLKSRVTISVDTSKNQFSLKLSSVTAADTAVYYCARVRYGVGVPRYFDPWGQGTLVTVSS VL: QSVLTQPPSVSGAPGQRVTISCTGSSSNIGAHYDVHWYQQLPGTAPKLLIYGNDNRPSGVPDRFSGSKSGTSASLAITGLQAEDEADYYCQSYDYSLSGYVFGGGTKLTVL | 0.7

## Task Recorded ELISA OD450cyIL-36/OD450hu-IL-36 of mAb5.0 Fab (yeast clone culture supernatant) (Fab, V domains shown, Human Fab secreted by the yeast clone, not purified) VH: EVQLLESGGGLVQPGGSLRLSCAASGFTFSTYAMSWVRQAPGKGLEWVSGISGGSGYTYYADSVKGRFTISRDNSKNTLYLQMNSLRAEDTAVYYCARVVTYRDPPASFDYWGQGTLVTVSS VL: QSVLTQPPSVSGAPGQRVTISCTGSSSNIGAHYDVHWYQQLPGTAPKLLIYGNDNRPSGVPDRFSGSKSGTSASLAITGLQAEDEADYYCQSYDYSLKAYVFGGGTKLTVL , please.
## Result 0.5

## Task Proceed to mAb1.0 Fab (yeast clone culture supernatant) (Fab, V domains shown, Human Fab secreted by the yeast clone, not purified) VH: QVQLVESGGGVVQPGRSLRLSCAASGFSFSAYAMHWVRQAPGKGLEWVAVISYDGTNEYYADSVKGRFTISRDNSKNTLYLQMNSLRAEDTAVYYCARGIRIFTSYFDSWGQGTLVTVSS VL: QSVLTQPPSVSGAPGQRVTISCTGSSSNIGAHYDVHWYQQLPGTAPKLLIYSNNNRPSGVPDRFSGSKSGTSASLAITGLQAEDEADYYCQSYDYSLRGYVFGGGTKLTVL
## Result 0.6

## Task Follow-up item: mAb3.0 Fab (yeast clone culture supernatant) (Fab, V domains shown, Human Fab secreted by the yeast clone, not purified) VH: QLQLQESGPGLVKPSETLSLTCTVSGGSISSTSYYWGWIRQPPGKGLEWIGSIHYSGNTYYNPSLKSRVTISVDTSKNQFSLKLSSVTAADTAVYYCARVHYGGYIPRRFDHWGQGTLVTVSS VL: QSVLTQPPSVSGAPGQRVTISCTGSSSNIGAGYDVHWYQQLPGTAPKLLIYGNTNRPSGVPDRFSGSKSGTSASLAITGLQAEDEADYYCQSYDYSLRGYVFGGGTKLTVL
## Result 0.5
